These measurements were taken from ChEMBL document CHEMBL1139498.

assay: Peak plasma concentration in rat after oral administration of 5 mg/kg; format: ADME, organism-based; design: dose 5 mg/kg, route oral
Recorded Cmax for the following compounds

- compound: "O=C(/C=C/c1ccc(C(F)(F)F)nc1N1CCOCC1)Nc1ccc2cccnc2c1"
  Cmax (ng/mL): 540
- compound: "CC(C)(C)c1ccc(/C=C/C(=O)Nc2ccc3c(c2)OCCO3)cc1 (stereo in doubt; 1)"
  Cmax (ng/mL): 25
- compound: "O=C(/C=C/c1ccc(C(F)(F)F)nc1N1CCCCC1)Nc1ccc2cccnc2c1"
  Cmax (ng/mL): 320

----------
biological target: Transient receptor potential cation channel subfamily V member 1 (Homo sapiens); experiment: Inhibition of pH-induced calcium uptake by transient receptor potential vanilloid type 1 expressed in CHO cells; format: functional, cell-based
Sequence (Q8NER1 whole entry): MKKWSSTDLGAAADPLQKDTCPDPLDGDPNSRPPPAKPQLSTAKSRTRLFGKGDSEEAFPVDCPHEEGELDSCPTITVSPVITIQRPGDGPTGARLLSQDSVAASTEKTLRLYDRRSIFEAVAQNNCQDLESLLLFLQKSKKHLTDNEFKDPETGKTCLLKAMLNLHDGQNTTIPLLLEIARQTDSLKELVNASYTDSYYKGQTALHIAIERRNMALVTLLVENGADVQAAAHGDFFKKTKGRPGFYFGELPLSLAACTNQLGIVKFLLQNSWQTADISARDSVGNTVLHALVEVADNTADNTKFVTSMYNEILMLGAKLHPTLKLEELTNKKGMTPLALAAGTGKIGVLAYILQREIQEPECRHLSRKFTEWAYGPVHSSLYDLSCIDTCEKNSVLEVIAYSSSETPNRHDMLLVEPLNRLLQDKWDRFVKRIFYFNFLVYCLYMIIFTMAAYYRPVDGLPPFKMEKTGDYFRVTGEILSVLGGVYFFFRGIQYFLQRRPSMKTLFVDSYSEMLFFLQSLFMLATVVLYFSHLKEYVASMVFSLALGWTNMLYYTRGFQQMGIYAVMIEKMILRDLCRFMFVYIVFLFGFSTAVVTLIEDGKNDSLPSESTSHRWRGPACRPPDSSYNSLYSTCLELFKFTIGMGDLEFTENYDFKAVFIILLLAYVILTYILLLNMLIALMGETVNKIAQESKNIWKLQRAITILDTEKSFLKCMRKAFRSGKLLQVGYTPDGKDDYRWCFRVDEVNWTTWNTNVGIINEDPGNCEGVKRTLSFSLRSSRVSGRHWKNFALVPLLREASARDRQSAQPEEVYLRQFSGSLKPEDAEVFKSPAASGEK
pIC50: −log10 of the molar value.

- compound: "CCOC(=O)c1cc(C(C)(C)C)ccc1/C=C/C(=O)Nc1ccc2c(c1)OCCO2"
  system: "Transient receptor potential cation channel subfamily V member 1 (Homo sapiens)"
  relation-operator: "="
  pIC50: 7.59
- compound: "CC(C)(C)c1ccc(/C=C/C(=O)Nc2ccc3c(c2)OCCO3)nc1"
  system: "Transient receptor potential cation channel subfamily V member 1 (Homo sapiens)"
  relation-operator: "="
  pIC50: 5.54
- compound: "CC(C)(C)c1ccc(C(=CC(=O)Nc2ccc3c(c2)OCCO3)c2ccc(C(C)(C)C)cc2)cc1"
  system: "Transient receptor potential cation channel subfamily V member 1 (Homo sapiens)"
  relation-operator: "<"
  pIC50: 5.40
- compound: "CC(C)(C)c1ccc(/C=C/C(=O)Nc2ccc3c(c2)OCCO3)cc1 (stereo in doubt; 1)"
  system: "Transient receptor potential cation channel subfamily V member 1 (Homo sapiens)"
  relation-operator: "="
  pIC50: 6.82
- compound: "CC(C)(C)c1ccc(/C(=C/C(=O)Nc2ccc3c(c2)OCCO3)c2cccnc2)cc1"
  system: "Transient receptor potential cation channel subfamily V member 1 (Homo sapiens)"
  relation-operator: "="
  pIC50: 6.29
- compound: "C/C(=C\\C(=O)Nc1ccc2c(c1)OCCO2)c1ccc(C(C)(C)C)cc1"
  system: "Transient receptor potential cation channel subfamily V member 1 (Homo sapiens)"
  relation-operator: "="
  pIC50: 6.37
- compound: "CC(C)(C)c1ccc(/C=C/C(=O)Oc2ccc3c(c2)OCCO3)cc1"
  system: "Transient receptor potential cation channel subfamily V member 1 (Homo sapiens)"
  relation-operator: "="
  pIC50: 5.49
- compound: "COc1ccc(NC(=O)/C=C/c2ccc(C(C)(C)C)cc2)cc1O"
  system: "Transient receptor potential cation channel subfamily V member 1 (Homo sapiens)"
  relation-operator: "<"
  pIC50: 5.40
- compound: "CC(C)(C)c1ccc(/C=C/C(=O)Nc2ccc3c(c2)OCCO3)cn1"
  system: "Transient receptor potential cation channel subfamily V member 1 (Homo sapiens)"
  relation-operator: "="
  pIC50: 5.62
- compound: "COc1ccc(/C=C/C(=O)Nc2ccc3c(c2)OCCO3)cc1"
  system: "Transient receptor potential cation channel subfamily V member 1 (Homo sapiens)"
  relation-operator: "<"
  pIC50: 5.40
- compound: "CC(C)(C)c1ccc(C2CC2C(=O)Nc2ccc3c(c2)OCCO3)cc1 (stereo unspecified)"
  system: "Transient receptor potential cation channel subfamily V member 1 (Homo sapiens)"
  relation-operator: "<"
  pIC50: 5.40
- compound: "CC(C)Cc1ccc(/C=C/C(=O)Nc2ccc3c(c2)OCCO3)cc1"
  system: "Transient receptor potential cation channel subfamily V member 1 (Homo sapiens)"
  relation-operator: "="
  pIC50: 6.07
- compound: "CCOC(=O)CC/C(=C\\C(=O)Nc1ccc2c(c1)OCCO2)c1ccc(C(C)(C)C)cc1"
  system: "Transient receptor potential cation channel subfamily V member 1 (Homo sapiens)"
  relation-operator: "="
  pIC50: 6.54
- compound: "CC(C)(C)c1ccc(/C=C/C(=O)Nc2ccccc2)cc1"
  system: "Transient receptor potential cation channel subfamily V member 1 (Homo sapiens)"
  relation-operator: "<"
  pIC50: 5.40
- compound: "O=C(/C=C/c1ccc(-c2ccccc2)cc1)Nc1ccc2c(c1)OCCO2"
  system: "Transient receptor potential cation channel subfamily V member 1 (Homo sapiens)"
  relation-operator: "<"
  pIC50: 5.40
- compound: "COc1ccc(NC(=O)/C=C/c2ccc(C(C)(C)C)cc2)cc1"
  system: "Transient receptor potential cation channel subfamily V member 1 (Homo sapiens)"
  relation-operator: "<"
  pIC50: 5.40
- compound: "CC(C)(C)c1ccc(/C(=C/C(=O)Nc2ccc3c(c2)OCCO3)c2ccc(C(F)(F)F)cc2)cc1"
  system: "Transient receptor potential cation channel subfamily V member 1 (Homo sapiens)"
  relation-operator: "="
  pIC50: 6.74
- compound: "CC/C(=C\\c1ccc(C(C)(C)C)cc1)C(=O)Nc1ccc2c(c1)OCCO2"
  system: "Transient receptor potential cation channel subfamily V member 1 (Homo sapiens)"
  relation-operator: "="
  pIC50: 6.10
- compound: "CC(C)(C)c1ccc(/C(=C/C(=O)Nc2ccc3c(c2)OCCO3)CCC(=O)O)cc1"
  system: "Transient receptor potential cation channel subfamily V member 1 (Homo sapiens)"
  relation-operator: "<"
  pIC50: 5.40
- compound: "CC(C)(C)c1ccc(/C=C(/C(=O)Nc2ccc3c(c2)OCCO3)c2ccccc2)cc1"
  system: "Transient receptor potential cation channel subfamily V member 1 (Homo sapiens)"
  relation-operator: "<"
  pIC50: 5.40
- compound: "CN(C(=O)/C=C/c1ccc(C(C)(C)C)cc1)c1ccc2c(c1)OCCO2"
  system: "Transient receptor potential cation channel subfamily V member 1 (Homo sapiens)"
  relation-operator: "<"
  pIC50: 5.40
- compound: "CC(C)(C)c1ccc(/C=C/C(=O)Nc2ccc3c(c2)NC(=O)CO3)cc1"
  system: "Transient receptor potential cation channel subfamily V member 1 (Homo sapiens)"
  relation-operator: "<"
  pIC50: 5.40
- compound: "O=C(/C=C/c1ccc(C(F)(F)F)nc1N1CCCCC1)Nc1ccc2c(c1)OCCO2"
  system: "Transient receptor potential cation channel subfamily V member 1 (Homo sapiens)"
  relation-operator: "="
  pIC50: 7.27
- compound: "O=C(/C=C/c1ccc(Br)cc1)Nc1ccc2c(c1)OCCO2"
  system: "Transient receptor potential cation channel subfamily V member 1 (Homo sapiens)"
  relation-operator: "="
  pIC50: 6.43
- compound: "CC(C)(C)c1ccc(/C(=C/C(=O)Nc2ccc3c(c2)OCCO3)c2ccccc2)cc1"
  system: "Transient receptor potential cation channel subfamily V member 1 (Homo sapiens)"
  relation-operator: "="
  pIC50: 6.92
- compound: "COc1ccccc1NC(=O)/C=C/c1ccc(C(C)(C)C)cc1"
  system: "Transient receptor potential cation channel subfamily V member 1 (Homo sapiens)"
  relation-operator: "<"
  pIC50: 5.40
- compound: "CC(C)(C)c1ccc(/C=C/C(=O)Nc2ccc3c(c2)NC(=O)CC3)cc1"
  system: "Transient receptor potential cation channel subfamily V member 1 (Homo sapiens)"
  relation-operator: "="
  pIC50: 7.15
- compound: "CC(C)(C)c1ccc(/C=C/CNc2ccc3c(c2)OCCO3)cc1"
  system: "Transient receptor potential cation channel subfamily V member 1 (Homo sapiens)"
  relation-operator: "<"
  pIC50: 5.40
- compound: "COc1ccc(NC(=O)/C=C/c2ccc(C(C)(C)C)cc2)cc1OC"
  system: "Transient receptor potential cation channel subfamily V member 1 (Homo sapiens)"
  relation-operator: "<"
  pIC50: 5.40
- compound: "CC(C)(C)c1ccc(/C(=C/C(=O)Nc2ccc3c(c2)OCCO3)Cc2ccccc2)cc1"
  system: "Transient receptor potential cation channel subfamily V member 1 (Homo sapiens)"
  relation-operator: "="
  pIC50: 6.96
- compound: "CC(C)(C)c1ccc(/C=C/C(=O)Nc2ccc3c(c2)OCCO3)cc1 (stereo in doubt; 34)"
  system: "Transient receptor potential cation channel subfamily V member 1 (Homo sapiens)"
  relation-operator: "="
  pIC50: 5.49
- compound: "CC(C)(C)c1ccc(/C=C/C(=O)Nc2ccc3c(c2)OCCO3)c(Br)c1"
  system: "Transient receptor potential cation channel subfamily V member 1 (Homo sapiens)"
  relation-operator: "="
  pIC50: 6.33
- compound: "CC(C)(C)c1ccc(/C=C/C(=S)Nc2ccc3c(c2)OCCO3)cc1"
  system: "Transient receptor potential cation channel subfamily V member 1 (Homo sapiens)"
  relation-operator: "="
  pIC50: 5.85
- compound: "CN(C)CCC/C(=C\\C(=O)Nc1ccc2c(c1)OCCO2)c1ccc(C(C)(C)C)cc1"
  system: "Transient receptor potential cation channel subfamily V member 1 (Homo sapiens)"
  relation-operator: "<"
  pIC50: 5.40
- compound: "CCc1ccc(/C=C/C(=O)Nc2ccc3c(c2)OCCO3)cc1"
  system: "Transient receptor potential cation channel subfamily V member 1 (Homo sapiens)"
  relation-operator: "="
  pIC50: 6.66
- compound: "C/C(=C\\c1ccc(C(C)(C)C)cc1)C(=O)Nc1ccc2c(c1)OCCO2"
  system: "Transient receptor potential cation channel subfamily V member 1 (Homo sapiens)"
  relation-operator: "="
  pIC50: 6.22
- compound: "CC(C)(C)c1ccc(CCC(=O)Nc2ccc3c(c2)OCCO3)cc1"
  system: "Transient receptor potential cation channel subfamily V member 1 (Homo sapiens)"
  relation-operator: "="
  pIC50: 6.18
- compound: "CC(C)(C)c1ccc(/C=C/C(=O)Nc2ccc3c(c2)NCCC3)cc1"
  system: "Transient receptor potential cation channel subfamily V member 1 (Homo sapiens)"
  relation-operator: "="
  pIC50: 6.80
- compound: "CC(C)(C)c1ccc(/C(=C/C(=O)Nc2ccc3c(c2)OCCO3)c2ccncc2)cc1"
  system: "Transient receptor potential cation channel subfamily V member 1 (Homo sapiens)"
  relation-operator: "="
  pIC50: 6.18
- compound: "CC(C)(C)c1cccc(/C=C/C(=O)Nc2ccc3c(c2)OCCO3)c1"
  system: "Transient receptor potential cation channel subfamily V member 1 (Homo sapiens)"
  relation-operator: "<"
  pIC50: 5.40
- compound: "CC(C)(C)c1ccc(/C=C/C(=O)Nc2ccc3c(c2)OCC(=O)N3)cc1"
  system: "Transient receptor potential cation channel subfamily V member 1 (Homo sapiens)"
  relation-operator: "<"
  pIC50: 5.40
